Would you mind telling me the reported viability at 28.5 h, 0.00375 µM of each entry?
test: in vitro; set-up: Viability of infected HeLa host cells, resazurin conversion, bulk resorufin fluorescence relative to DMSO; settings: human, hela cells; bulk resorufin, mean of 3
Kindly provide the numeric value in % only, without the unit symbol.

Lab note: CCCCc1ccc(Nc2csc(N)n2)cc1 [c11e] gave viability at 28.5 h, 0.00375 µM of 96.4

Notebook: CC(=O)N1CCc2sccc2C1c1ccccc1NCc1ccoc1 (stereo not shown) [c28e] , viability at 28.5 h, 0.00375 µM read as 86

For this compound ( CC(Cc1nc(-c2nccn2C)cs1)n1cc(Cl)cn1 (stereo not shown) [c14e] ), measured viability at 28.5 h, 0.00375 µM is 107

// viability at 28.5 h, 0.00375 µM lookup, compound = O=[N+]([O-])c1ccc(-n2cnc3ccccc32)c([N+](=O)[O-])c1 [c41e] , result: 102

====

For each entry below, report its viability at 28.5 h, 10 µM value.
assay: in vitro; details: human, hela cells, % viability
Return type: number; implicit unit %.

What the record says about `Cc1ccc(S(=O)(=O)Nc2cccc(C(=O)N3CCN(C)CC3)c2)cc1[N+](=O)[O-]` : viability at 28.5 h, 10 µM is 89.5

Form field viability at 28.5 h, 10 µM, entry `O=C(NNc1ccccc1)c1c(O)c2ccccc2oc1=O` : 75.1

Looking up `Cc1nc2ncnn2c(C)c1CCC(=O)Nc1cccc(CCc2ccncc2)c1` , I see its viability at 28.5 h, 10 µM listed as 99.8

The compound listed as `O=C(O)c1cc(Cl)c2c(c1)[C@@H]1C=CC[C@@H]1[C@H](c1cccc(Br)c1)N2` has a reported viability at 28.5 h, 10 µM of 106

Reported viability at 28.5 h, 10 µM of CCc1nc(CN2CCCC(NCc3cccc(C(N)=O)c3)C2)no1 (stereo not shown) : 87.2

What the record says about `CCNC(=O)N1CC2(CCN(CCOCC)CC2)c2ccccc21` : viability at 28.5 h, 10 µM is 90.5

compound `C=CCn1c(Cc2csc(NC(=O)c3ccc(OC(F)F)cc3)n2)n[nH]c1=S` , viability at 28.5 h, 10 µM observed: 100

`COc1ccc(-c2nc(C#N)c(NCCN3CCOCC3)o2)cc1` has a reported viability at 28.5 h, 10 µM of 108

compound COc1ccc(/C(N)=N/OC(=O)C(C)Oc2ccc(Br)cc2)cc1OC (stereo not shown) , viability at 28.5 h, 10 µM observed: 95.6

In plain terms, CCN1CCCC1CN(Cc1cnn(C)c1)Cc1ccco1 (stereo not shown) has a documented viability at 28.5 h, 10 µM of 96.6

Consider `N#Cc1ccc(-n2nc(-c3ccccc3)c3ccccc3c2=O)c([N+](=O)[O-])c1` . Its measured viability at 28.5 h, 10 µM is 96.6

compound `CSCCCNC(=O)N1CCN(C2CCN(C)CC2)CC1` , viability at 28.5 h, 10 µM observed: 101

Measured viability at 28.5 h, 10 µM, CC(NC(=O)C1CCN(Cc2ccccn2)CC1)c1cccc2ccccc12 (stereo not shown) : 98.2

viability at 28.5 h, 10 µM recorded for this compound, `O=C(NO)Nc1cc(Cl)cc(Cl)c1` , is 109

# compound CCNC(=O)NC1CC(C)(C)Cc2c1cnn2-c1ccc(OC)cc1 (stereo not shown) ; its viability at 28.5 h, 10 µM = 90.6

For this compound ( `O=c1sn(C2CCCCC2)c(=O)n1Cc1ccc(F)cc1` ), measured viability at 28.5 h, 10 µM is 90.8

Record O=c1[nH]c(=O)c2cc(S(=O)(=O)N3CCCCC3CN3CCCCC3)ccc2[nH]1 (stereo not shown) . Reported viability at 28.5 h, 10 µM: 83.5

Measured viability at 28.5 h, 10 µM, `Cn1nc(NC(=O)COCC(=O)O)c2ccccc21` : 98.8

So, CC(=O)N1CCc2ccc(S(=O)(=O)n3ccc4c(N5CCNCC5)cccc43)cc2C1 [CBK001632C] ? Its viability at 28.5 h, 10 µM was 101
